# TGT: HLA-B*46:01
# ASSAY NAME: IEDB peptide-MHC binding, purified MHC/competitive/fluorescence; filed as Kd, often an IC50 or EC50 that approximates it; bounds were set here for any values at or beyond the usual limits of such assays
# EXPERIMENTAL CONTEXT: source organism: Streptococcus pneumoniae TIGR4
METRIC NAME: Kd

Notebook: CLSDEINHV , Kd read as ≥ 20 µM

====

# TGT: HLA-A*02:01
# ASSAY NAME: IEDB peptide-MHC binding, purified MHC/direct/fluorescence; filed as Kd, often an IC50 or EC50 that approximates it; bounds were set here for any values at or beyond the usual limits of such assays
# EXPERIMENTAL CONTEXT: source organism: Yersinia pestis
METRIC NAME: Kd (nM)
Write the value in nM as a bare number.

Notebook: FMHSAAPIT , Kd read as 216

Source: the Immune Epitope Database (IEDB)
